src = paper PMC10303200

MEASURED TARGET: GAL-7 (Homo sapiens)
Construct: gene LGALS7; homodimer (monomer MW 14.94 kDa)
Sequence (P47929 whole entry): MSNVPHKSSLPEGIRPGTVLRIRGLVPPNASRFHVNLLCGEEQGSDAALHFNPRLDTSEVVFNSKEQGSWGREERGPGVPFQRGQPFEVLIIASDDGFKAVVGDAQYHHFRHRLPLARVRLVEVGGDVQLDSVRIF
METHOD SUMMARY: COIN-nMS of the GAL-7 homodimer with a mixture of ten glycans (G2, G5-G13), 200 mM ammonium acetate, pH 6.9.
Format: binding
CONDITION NOTES: SD, n = 8; read-out: Kd (COIN-nMS), Table S4
pKd: −log10 of the molar value.
Attribute: pKd
QUANTITY KIND: pKd

compound="CC(=O)N[C@H]1[C@H](O[C@H]2[C@@H](O)[C@@H](CO)O[C@@H](O[C@H]3[C@H](O)[C@@H](O)C(O)O[C@@H]3CO)[C@@H]2O)O[C@H](CO)[C@@H](O[C@@H]2O[C@H](CO)[C@H](O)[C@H](O)[C@H]2O)[C@@H]1O (some centres unmarked)" quantity_kind=pKd measured_number=3.36
compound="CC(=O)N[C@H]1[C@@H](O[C@H]2[C@@H](O)[C@@H](CO)O[C@@H](O[C@H]3[C@H](O)[C@@H](CO)O[C@@H](O[C@H]4[C@@H](O)[C@@H](CO)O[C@@H](O[C@H]5[C@H](O)[C@@H](O)C(O)O[C@@H]5CO)[C@@H]4O)[C@@H]3NC(C)=O)[C@@H]2O[C@@H]2O[C@@H](C)[C@@H](O)[C@@H](O)[C@@H]2O)O[C@H](CO)[C@H](O)[C@@H]1O (some centres unmarked)" quantity_kind=pKd measured_number=3.58
compound="CC(=O)N[C@H]1[C@H](O[C@H]2[C@@H](O)[C@@H](CO)O[C@@H](O[C@H]3[C@H](O)[C@@H](NC(C)=O)[C@H](O[C@H]4[C@@H](O)[C@@H](CO)O[C@@H](O[C@H]5[C@H](O)[C@@H](O)C(O)O[C@@H]5CO)[C@@H]4O)O[C@@H]3CO)[C@@H]2O)O[C@H](CO)[C@@H](O[C@@H]2O[C@H](CO)[C@H](O)[C@H](O)[C@H]2O)[C@@H]1O (some centres unmarked)" quantity_kind=pKd measured_number=3.44
compound="CC(=O)N[C@H]1[C@@H](O[C@H]2[C@@H](O)[C@@H](CO)O[C@@H](O[C@H]3[C@H](O)[C@@H](O)C(O)O[C@@H]3CO)[C@@H]2O[C@@H]2O[C@@H](C)[C@@H](O)[C@@H](O)[C@@H]2O)O[C@H](CO)[C@H](O)[C@@H]1O (some centres unmarked)" quantity_kind=pKd measured_number=3.48
compound="CC(=O)N[C@H]1[C@H](O[C@H]2[C@@H](O)[C@@H](CO)O[C@@H](O[C@H]3[C@H](O[C@@H]4O[C@@H](C)[C@@H](O)[C@@H](O)[C@@H]4O)[C@@H](O)C(O)O[C@@H]3CO)[C@@H]2O)O[C@H](CO)[C@@H](O)[C@@H]1O[C@@H]1O[C@H](CO)[C@H](O)[C@H](O)[C@H]1O (some centres unmarked)" quantity_kind=pKd measured_number=3.56
compound="C[C@@H]1O[C@@H](O[C@H]2[C@H](O[C@H]3[C@H](O)[C@@H](O)C(O)O[C@@H]3CO)O[C@H](CO)[C@H](O)[C@@H]2O)[C@@H](O)[C@H](O)[C@@H]1O (some centres unmarked)" quantity_kind=pKd measured_number=3.62
compound="CC(=O)N[C@H]1[C@@H](O[C@H]2[C@@H](O)[C@@H](CO)O[C@@H](O[C@H]3[C@H](O)[C@@H](NC(C)=O)C(O)O[C@@H]3CO)[C@@H]2O[C@@H]2O[C@@H](C)[C@@H](O)[C@@H](O)[C@@H]2O)O[C@H](CO)[C@H](O)[C@@H]1O (some centres unmarked)" quantity_kind=pKd measured_number=3.36
compound="CC(=O)N[C@H]1[C@H](O[C@H]2[C@@H](O)[C@@H](CO)O[C@@H](O[C@H]3[C@H](O)[C@@H](NC(C)=O)[C@H](O[C@H]4[C@@H](O)[C@@H](CO)O[C@@H](O[C@H]5[C@H](O)[C@@H](NC(C)=O)[C@H](O[C@H]6[C@@H](O)[C@@H](CO)O[C@@H](O[C@H]7[C@H](O)[C@@H](O)C(O)O[C@@H]7CO)[C@@H]6O)O[C@@H]5CO)[C@@H]4O)O[C@@H]3CO)[C@@H]2O)O[C@H](CO)[C@@H](O[C@@H]2O[C@H](CO)[C@H](O)[C@H](O)[C@H]2O)[C@@H]1O (some centres unmarked)" quantity_kind=pKd measured_number=3.64
